# credit: patent US11078198B2

For each entry below, report its EC50 value.
- assayed_target: human FXR (Homo sapiens, UniProt Q96RI1)
- Sequence (Q96RI1 262-486 limits assumed): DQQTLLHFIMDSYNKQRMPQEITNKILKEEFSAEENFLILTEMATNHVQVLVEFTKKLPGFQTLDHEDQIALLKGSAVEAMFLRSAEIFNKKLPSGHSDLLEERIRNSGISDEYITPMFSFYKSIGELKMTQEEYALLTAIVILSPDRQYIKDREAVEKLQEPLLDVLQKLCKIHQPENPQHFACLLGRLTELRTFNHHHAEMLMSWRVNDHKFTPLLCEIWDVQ
- assay_summary: transient human FXR/Gal4-luciferase reporter assay
- condition_summary: Gal4-hFXR transfected HEK293 reporter cells; relative to 8 μM GW-4064
Numbers only, in nM.

O=C(O)c1cc(F)c2nc(N3CCC4(CC3)CC(c3c(-c5ccccc5C(F)(F)F)noc3C3CC3)C4)sc2c1 : 116
O=C(O)c1ccc2oc(N3CCC4(C=C(c5c(-c6c(Cl)cccc6Cl)noc5C5CC5)C4)CC3)nc2c1 : 157
COc1cc2nc(N3CCC4(C=C(c5c(-c6c(Cl)cncc6Cl)noc5C5CC5)C4)CC3)sc2cc1C(=O)O : 72
O=C(O)c1cc(OC(F)F)c2cc(N3CCC4(C=C(c5c(-c6ncccc6Cl)noc5C5CC5)C4)CC3)ccc2n1 : 121
COc1cc(C(=O)O)nc2ccc(N3CCC4(C=C(c5c(-c6cccnc6C(F)(F)F)noc5C5CC5)C4)CC3)cc12 : 156

Please state, for each entry, its recorded EC50.
1. O=C(O)c1cnc2nc(N3CCC4(C=C(c5c(-c6c(Cl)cccc6Cl)noc5C5CC5)C4)CC3)sc2c1
2. O=C(NC1CC1)c1cc(F)c2nc(N3CCC4(C=C(c5c(-c6c(Cl)cncc6Cl)noc5C5CC5)C4)CC3)sc2c1
3. O=C(O[C@@H]1O[C@H](C(=O)O)[C@@H](O)[C@H](O)[C@H]1O)c1cc(C(F)(F)F)c2cc(N3CCC4(C=C(c5c(-c6c(Cl)cncc6Cl)noc5C5CC5)C4)CC3)ccc2n1

121
150
73
